Source listed as patent US8921373B2.

target: human recombinant TRPV1 (Homo sapiens (Human)); assay: TRPV1 pH-Based Assay (Protocol 2, Ca2+ response in TRPV1/CHO cells, Fura-2); format: cell-based; conditions: TRPV1/CHO cells, pH 5.0-5.1; comparative compounds without the substituted alkyl group; read-out: TRPV1 IC50 Potency (pH-Based Assay), Comparative compound IC50
Sequence (Q8NER1 whole entry): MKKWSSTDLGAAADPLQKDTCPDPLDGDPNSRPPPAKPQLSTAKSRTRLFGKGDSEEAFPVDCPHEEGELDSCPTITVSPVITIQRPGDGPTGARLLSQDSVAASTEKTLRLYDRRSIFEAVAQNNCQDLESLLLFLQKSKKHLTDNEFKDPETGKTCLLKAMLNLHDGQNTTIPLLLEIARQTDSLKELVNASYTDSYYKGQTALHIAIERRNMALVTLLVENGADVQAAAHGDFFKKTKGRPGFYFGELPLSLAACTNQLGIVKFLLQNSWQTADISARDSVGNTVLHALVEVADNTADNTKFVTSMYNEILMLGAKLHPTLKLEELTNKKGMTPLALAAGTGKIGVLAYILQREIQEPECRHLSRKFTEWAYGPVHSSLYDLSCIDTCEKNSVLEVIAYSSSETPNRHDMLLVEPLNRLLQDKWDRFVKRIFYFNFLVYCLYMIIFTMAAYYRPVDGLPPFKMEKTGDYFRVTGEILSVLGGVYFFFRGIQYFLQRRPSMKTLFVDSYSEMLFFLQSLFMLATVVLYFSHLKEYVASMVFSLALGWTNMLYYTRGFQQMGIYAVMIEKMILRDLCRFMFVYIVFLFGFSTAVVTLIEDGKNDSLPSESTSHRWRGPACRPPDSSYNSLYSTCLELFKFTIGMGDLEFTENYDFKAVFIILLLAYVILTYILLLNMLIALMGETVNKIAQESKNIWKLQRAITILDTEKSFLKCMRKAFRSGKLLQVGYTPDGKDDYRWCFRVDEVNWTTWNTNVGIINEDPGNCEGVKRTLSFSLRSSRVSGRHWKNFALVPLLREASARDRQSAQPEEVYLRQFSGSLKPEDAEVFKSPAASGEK
MEASUREMENT LABEL: IC50 (nM)

P: C[C@@H]1CN(c2ncccc2Cl)CCN1C(=O)Nc1nc2ccc(F)cc2s1 [reference compound]
Q: O=C(Nc1nc2ccc(F)cc2s1)N1CC=C(c2ncccc2Cl)CC1 [reference compound]
R: O=C(Nc1ccc(C(F)(F)F)c(Cl)c1)N1CC=C(c2ncccc2Cl)CC1 [drawing 478, reference compound]
S: O=C(Nc1ccc(C(F)(F)F)c(Cl)c1)N1CC=C(c2ncccc2Cl)CC1 [drawing 493, reference compound]
Problem: Put the items in sequence by IC50, from largest down. Field: ranking. Enter the labels in the order requested.
Result: Q, R, S, P
(Q: 943 nM, R: 139 nM, S: 77 nM, P: 24 nM)
